# Tested on: human lung MRC-5 fibroblasts
# ASSAY_TEXT: cytotoxicity, Alamar Blue (resazurin) assay
# RUN_PARAMETERS: human MRC-5 fibroblasts, 3 days incubation
Tox/MRC-5 listing for selected compounds.

INSERT INTO results (structure_string, reported_measurement) VALUES
  ('CC1=C(Cc2cccc(N(C)C)c2)C(=O)c2ccccc2C1=O', '>64.0 µM');

Task item: Look at this compound and give its reported Tox/MRC-5. CC(=O)Nc1ccccc1CC1=C(C)C(=O)c2ccccc2C1=O
Reply: 4.4 µM

Task item: Follow-up item: CC1=C(Cc2ccc(N(C)C)cc2)C(=O)c2ccccc2C1=O
Reply: >64.0 µM

Task item: Follow-up item: CCN(CC)c1cccc(CC2=C(C)C(=O)c3ccccc3C2=O)c1
Reply: >64.0 µM

Task item: Follow-up item: CC1=C(Cc2ccc(-c3ccc(C(C)(C)C)cc3)cc2)C(=O)c2ccccc2C1=O
Reply: >64.0 µM

* * *

# ASSAY_TEXT: absorption spectrophotometric titrations versus pH (pKa)
# RUN_PARAMETERS: 0.1 M NaClO4 in water/DMSO (91:9 v/v)
ASSAY_READOUT: pKa
Lab note: record just the number, no unit beside it.

INSERT INTO results (compound, reported_measurement) VALUES
  ('CC1=C(Cc2cccc(N(C)C)c2)C(=O)c2ccccc2C1=O [Compound 18]', 4.6),
  ('CCN(CC)c1ccc(CC2=C(C)C(=O)c3ccccc3C2=O)cc1 [Compound 11]', 5.07);

Task item: Look at this compound and give its reported pKa. CC1=C(Cc2ccc(N(C)C)cc2)C(=O)c2ccccc2C1=O [Compound 3]
Reply: 4.87

* * *

# ASSAY_TEXT: absorption spectrophotometric titrations versus pH (pKa)
# RUN_PARAMETERS: water with 0.1 M NaClO4
pKa listing for selected compounds.
Lab note: record just the number, no unit beside it.

INSERT INTO results (compound, reported_measurement) VALUES
  ('CC1=C(Cc2ccc(N)cc2)C(=O)c2ccccc2C1=O [Compound 7]', 4.74);

--- query ---
Task item: Look at this compound and give its reported pKa. CC1=C(Cc2cccc(N)c2)C(=O)c2ccccc2C1=O [Compound 17]
Reply: 4.3

* * *

# Tested on: human lung MRC-5 fibroblasts
# ASSAY_TEXT: cytotoxicity, Alamar Blue (resazurin) assay
# RUN_PARAMETERS: human MRC-5 fibroblasts, 3 days incubation
Tox/MRC-5 listing for selected molecules.

// solved cases for Tox/MRC-5 follow
INSERT INTO results (structure_string, assay_readout, reported_measurement) VALUES
  ('CC1=C(Cc2ccc(NC(=O)OC(C)(C)C)cc2)C(=O)c2ccccc2C1=O', 'Tox/MRC-5', '>64.0 µM'),
  ('CC1=C(Cc2ccc(-c3ccc(N(C)C)cc3)cc2)C(=O)c2ccccc2C1=O', 'Tox/MRC-5', '>64.0 µM'),
  ('CC1=C(Cc2cccc(N)c2)C(=O)c2ccccc2C1=O', 'Tox/MRC-5', '>64.0 µM');

Task item: Look at this molecule and give its reported Tox/MRC-5. CCN(CC)c1ccc(CC2=C(C)C(=O)c3ccccc3C2=O)cc1
Reply: 29.3 µM

Task item: Follow-up item: CC1=C(Cc2ccc(N)cc2)C(=O)c2ccccc2C1=O
Reply: >64.0 µM
